System: EKVX NSCLC
protocol-summary: NCI tumour cell line growth inhibition, 48 h
attribute-measured: TGI (µM)
Write the answer as a number in µM, unit excluded.

| sample-smiles | TGI (µM) |
| --- | --- |
| O=[N+]([O-])c1cccc2nc3ccccc3c(NCCCN3CCOCC3)c12 | 0.0559 |

Now for another entry.
Req: State its TGI: Cc1c(CCCl)c(N=[N+]=[N-])n2c(nc3ccccc32)c1C#N
Resp: 4.4

----------
Test system: MOLT-4 leukemia
protocol-summary: NCI tumour cell line growth inhibition, 48 h
attribute-measured: TGI

| molecule | TGI |
| --- | --- |
| Cc1cc(C(=O)N2CCN(Cc3ccccc3)CC2)c(C)o1 | > 100 µM |
| CC1=C[C@]2(CC(C)C3C(CC4(C)C5CCC6C(C)(C)C(=O)CC[C@@]67C[C@@]57CC[C@]34C)O2)OC1=O (stereo not given in full) | > 100 µM |
| O=c1cc(-c2ccccc2)oc2ccc(Oc3nnnn3-c3ccccc3)cc12 | > 100 µM |
| O=C(c1cccs1)c1c(C(F)(F)F)n([O-])c2ccc(F)cc2[n+]1=O | 1.02 µM |

Req: Provide only the value of recorded TGI for COC(=O)Nc1nc2cc3c(cc2s1)OCCO3
Resp: > 50 µM
